Consider the following compounds; for each one, report its IC50.
# system.name: UniProtKB P61088
# Sequence (P61088 whole entry): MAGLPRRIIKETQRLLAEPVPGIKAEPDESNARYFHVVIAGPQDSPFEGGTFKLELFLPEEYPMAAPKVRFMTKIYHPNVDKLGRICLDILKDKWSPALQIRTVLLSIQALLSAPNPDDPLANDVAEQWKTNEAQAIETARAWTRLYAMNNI
# Format: functional
Activity calls are given as the source filed them.

Prompt: Give UniProtKB P61088 IC50 for the following compound: `CC[n+]1c(/C=C/N(C)c2ccccc2)n(-c2ccccc2)c2ccc(-c3nc4ccccc4s3)cc21`
Completion: 9.83 µM (active)

Prompt: Give UniProtKB P61088 IC50 for the following compound: `CCCCc1ccc(/C=C(\C#N)C(N)=S)s1`
Completion: > 20 µM (inactive)

Prompt: # return IC50 for `CCc1ccc2nc(N(CCCN(C)C)C(=O)c3ccc(S(=O)(=O)N4CCc5ccccc5C4)cc3)sc2c1` , test system: UniProtKB P61088
Completion: 4.58 µM (active)
